# assayed.system: JAK1 (Homo sapiens, UniProt P23458)
# Construct: 5 μl of catalytic domain recombinant Kinase enzyme+Tyr peptide substrate (Invitrogen, CA)
# Sequence (P23458 875-1153 limits assumed): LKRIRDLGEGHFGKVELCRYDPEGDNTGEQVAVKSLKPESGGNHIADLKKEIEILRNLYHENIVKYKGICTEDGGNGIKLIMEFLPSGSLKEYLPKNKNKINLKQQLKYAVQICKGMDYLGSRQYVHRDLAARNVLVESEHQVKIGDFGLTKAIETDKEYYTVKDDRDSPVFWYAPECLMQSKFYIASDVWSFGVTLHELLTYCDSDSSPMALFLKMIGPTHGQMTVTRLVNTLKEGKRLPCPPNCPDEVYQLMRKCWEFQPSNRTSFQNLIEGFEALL
# test.description: Z'-LYTE kinase assay JAK1
pIC50: −log10 of the molar value.
metric.name: pIC50

[[record]]
structure_smiles = "NC(=O)c1cnc(Nc2ccc(N3CCCCC3)cc2)cc1NC1(c2ccccc2)CC1"
test_result = "< 6.00"

[[record]]
structure_smiles = "COC(=O)N(C)c1ccc(Nc2cc(NCc3cccc(F)n3)c(C(N)=O)cn2)cc1"
test_result = "6.00 to 7.00"

[[record]]
structure_smiles = "CN(C)C(=O)c1ccc(Nc2cc(NCc3cccc(F)n3)c(C(N)=O)cn2)cc1"
test_result = "6.00 to 7.00"


Proceed to the following item.
Documented pIC50 of CC(=O)N1CCN(c2ccc(Nc3cc(N[C@H](CO)c4ccccc4)c(C(N)=O)cn3)cc2)CC1 : < 6.00

From: patent US20150353495A1
